Endpoint: IC50. System: Cyclooxygenase (Rattus norvegicus, UniProt P35355+Q63921). Items follow.
// return numeric value only (unit: µM, not printed)

Some solved entries appear below for comparison.
CC(C)(C)c1cc(/C=C/c2n[nH]c(S)n2)cc(C(C)(C)C)c1O 6.7
CC(C)(C)c1cc(-c2nnc(N)o2)cc(C(C)(C)C)c1O 2.4
CC(C)(C)c1cc(/C=C/c2nnc(S)s2)cc(C(C)(C)C)c1O 5.2
CC(C)(C)c1cc(-c2nnc(O)o2)cc(C(C)(C)C)c1O 2.5
Cn1nc(-c2cc(C(C)(C)C)c(O)c(C(C)(C)C)c2)sc1=S 0.65

Okay, next one:
Challenge: Report IC50, nothing else, for this compound: CC(C)(C)c1cc(/C=C/c2nnc(N)o2)cc(C(C)(C)C)c1O
Response given: 8

----------
pIC50 values recorded for Polyunsaturated fatty acid 5-lipoxygenase (Rattus norvegicus)
Entry type: numeric. Quantity: pIC50, the -log10 of concentration in molar units.

Here are 5 molecules together with their reported answers.
CC(C)(C)c1cc(/C=C/c2n[nH]c(S)n2)cc(C(C)(C)C)c1O 5.62
CC(C)(C)c1cc(/C=C/c2nnc(S)s2)cc(C(C)(C)C)c1O 5.74
CC(C)(C)c1cc(/C=C/c2nnc(O)o2)cc(C(C)(C)C)c1O 6.68
CC(C)(C)c1cc(-c2nnc(O)s2)cc(C(C)(C)C)c1O 5.23
CC(C)(C)c1cc(-c2nnc(S)o2)cc(C(C)(C)C)c1O 5.32

Challenge: Give measured pIC50 for CC(C)(C)c1cc(/C=C/c2nnc(N)o2)cc(C(C)(C)C)c1O (Polyunsaturated fatty acid 5-lipoxygenase (Rattus norvegicus)).
Response given: 5.96

Challenge: Write down measured pIC50 (Polyunsaturated fatty acid 5-lipoxygenase (Rattus norvegicus)) for this molecule. CC(C)(C)c1cc(-c2nnc(N)o2)cc(C(C)(C)C)c1O
Response given: 6.15

Challenge: Please tell me the measured pIC50 for CC(C)(C)c1cc(/C=C/c2n[nH]c(O)n2)cc(C(C)(C)C)c1O ; system: Polyunsaturated fatty acid 5-lipoxygenase (Rattus norvegicus).
Sequence (P12527 whole entry): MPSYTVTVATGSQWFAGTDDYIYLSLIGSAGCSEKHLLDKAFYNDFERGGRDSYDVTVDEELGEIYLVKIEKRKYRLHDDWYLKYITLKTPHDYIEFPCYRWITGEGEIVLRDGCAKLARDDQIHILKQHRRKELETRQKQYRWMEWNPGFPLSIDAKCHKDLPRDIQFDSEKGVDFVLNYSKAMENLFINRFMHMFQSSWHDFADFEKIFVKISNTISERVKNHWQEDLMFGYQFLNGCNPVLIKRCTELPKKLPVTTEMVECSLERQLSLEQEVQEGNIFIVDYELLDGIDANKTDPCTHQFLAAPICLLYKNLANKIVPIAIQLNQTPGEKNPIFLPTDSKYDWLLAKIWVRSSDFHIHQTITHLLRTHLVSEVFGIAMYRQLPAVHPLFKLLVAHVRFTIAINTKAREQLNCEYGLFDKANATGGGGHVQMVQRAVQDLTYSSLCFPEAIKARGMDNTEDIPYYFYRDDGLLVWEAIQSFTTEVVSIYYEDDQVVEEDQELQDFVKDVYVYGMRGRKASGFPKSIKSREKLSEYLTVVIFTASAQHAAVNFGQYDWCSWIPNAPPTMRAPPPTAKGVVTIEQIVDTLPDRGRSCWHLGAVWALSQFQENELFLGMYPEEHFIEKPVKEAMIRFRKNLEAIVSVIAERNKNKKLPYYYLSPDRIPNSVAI
Response given: 5.80

----------
# assay overview: Partition coefficient (logP)
# Type: physicochemical
# test conditions: octanol/water
# logP per record follows
Please reply with the number alone, leaving off any unit.

Would you please look over these solved cases?
item smiles	parameter measured	result value
CC(C)(C)c1cc(-c2nnc(O)s2)cc(C(C)(C)C)c1O	logP	4
CC(C)(C)c1cc(-c2n[nH]c(O)n2)cc(C(C)(C)C)c1O	logP	3.1
CC(C)(C)c1cc(-c2nnc(O)o2)cc(C(C)(C)C)c1O	logP	3.4
Cn1c(S)nnc1-c1cc(C(C)(C)C)c(O)c(C(C)(C)C)c1	logP	3.7
CC(C)(C)c1cc(/C=C/c2nnc(O)o2)cc(C(C)(C)C)c1O	logP	3.4

Challenge: Retrieve logP measured for CC(C)(C)c1cc(/C=C/c2n[nH]c(S)n2)cc(C(C)(C)C)c1O and print it.
Response given: 3.1

Challenge: State, in one line, measured logP of CC(C)(C)c1cc(/C=C/c2n[nH]c(O)n2)cc(C(C)(C)C)c1O
Response given: 3.8

Challenge: Recall and state the measured logP for CC(C)(C)c1cc(-c2nnc(N)s2)cc(C(C)(C)C)c1O .
Response given: 3.7

----------
# subject of test: Cyclooxygenase (Rattus norvegicus, UniProt P35355+Q63921)
# Sequence (P35355 whole entry): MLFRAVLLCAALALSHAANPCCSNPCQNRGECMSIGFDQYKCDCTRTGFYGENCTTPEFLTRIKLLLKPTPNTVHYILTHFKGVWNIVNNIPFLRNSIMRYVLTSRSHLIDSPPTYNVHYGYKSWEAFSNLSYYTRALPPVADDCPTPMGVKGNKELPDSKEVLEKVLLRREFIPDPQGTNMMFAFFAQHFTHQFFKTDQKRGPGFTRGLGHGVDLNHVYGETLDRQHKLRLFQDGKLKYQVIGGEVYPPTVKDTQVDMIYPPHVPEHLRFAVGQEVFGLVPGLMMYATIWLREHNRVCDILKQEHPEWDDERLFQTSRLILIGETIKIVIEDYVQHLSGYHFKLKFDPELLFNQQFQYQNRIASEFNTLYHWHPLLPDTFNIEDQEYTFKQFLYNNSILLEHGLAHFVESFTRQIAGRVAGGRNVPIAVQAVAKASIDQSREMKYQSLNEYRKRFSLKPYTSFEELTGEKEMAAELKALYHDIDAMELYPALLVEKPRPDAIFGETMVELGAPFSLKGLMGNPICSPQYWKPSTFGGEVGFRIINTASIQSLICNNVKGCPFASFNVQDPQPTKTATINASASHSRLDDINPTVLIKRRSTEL
# Sequence (Q63921 whole entry): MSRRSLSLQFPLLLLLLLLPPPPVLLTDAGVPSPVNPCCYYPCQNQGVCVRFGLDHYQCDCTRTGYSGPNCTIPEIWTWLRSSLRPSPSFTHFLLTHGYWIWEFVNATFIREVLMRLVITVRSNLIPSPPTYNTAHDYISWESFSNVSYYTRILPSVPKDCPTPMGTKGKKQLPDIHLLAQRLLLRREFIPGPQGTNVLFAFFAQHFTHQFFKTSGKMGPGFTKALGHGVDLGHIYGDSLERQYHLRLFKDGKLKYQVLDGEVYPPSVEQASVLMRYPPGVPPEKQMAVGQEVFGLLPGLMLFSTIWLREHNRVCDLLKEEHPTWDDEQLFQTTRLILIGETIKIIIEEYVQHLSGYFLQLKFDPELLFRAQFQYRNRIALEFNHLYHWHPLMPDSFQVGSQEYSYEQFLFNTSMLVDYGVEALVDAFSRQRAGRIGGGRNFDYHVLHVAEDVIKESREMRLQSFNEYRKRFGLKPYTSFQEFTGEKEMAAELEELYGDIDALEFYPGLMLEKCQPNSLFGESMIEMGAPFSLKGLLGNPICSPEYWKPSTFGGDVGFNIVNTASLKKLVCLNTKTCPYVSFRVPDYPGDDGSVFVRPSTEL
# IC50 listing for each entry below

CC(C)(C)c1cc(/C=C/c2nnc(O)o2)cc(C(C)(C)C)c1O > 32 µM
CC(C)(C)c1cc(-c2nnc(O)s2)cc(C(C)(C)C)c1O > 16 µM
CSc1nnc(/C=C/c2cc(C(C)(C)C)c(O)c(C(C)(C)C)c2)s1 > 10 µM

Moving on to another compound below.
Challenge: Fill in IC50 for record Cn1c(S)nnc1-c1cc(C(C)(C)C)c(O)c(C(C)(C)C)c1
Response given: > 32 µM
